- Tested on: CAKI-1 renal
- assay-overview: NCI-60 one-dose screen, 48 h
- settings: 10 µM unless noted
- Experimental: Growth inhibition of the CAKI-1 human tumor cell line is measured as a screen for anti-cancer activity. Cells are grown in 96 well plates and exposed to the test compound for 48 hours. Compounds are tested at a single concentration, which is 10^-5 M for most compounds. The reported endpoint is percent growth (GI% or GIPRCNT), where numbers from 0 - 100% represent growth inhibition, and numbers from -100% - 0 represent cell death. For example, a value of 40 represents 60% growth inhibition. […]
About 83,000 compounds went through this panel and 20% of them were active in at least one assay; those are over-represented in the sample as a whole. Active and inactive are the calls of the source. The calls were made as follows: active = growth percent below 10; inactive = the rest.
// one of active, inactive, no free text

Consider the worked cases shown below.
{"smiles-structure": "CN1C(=O)/C(=C\\c2c(Cl)cccc2Cl)c2ccccc21", "discrete-label": "inactive"}
{"smiles-structure": "C#Cc1c2c(c(OC)c3c1OCO3)[C@H]([C@H]1OC(=O)c3c1ccc(OC)c3OC)N(C)CC2", "discrete-label": "inactive"}
{"smiles-structure": "O=C1/C(=C/c2ccccc2Br)COc2ccc(O)cc21", "discrete-label": "inactive"}
{"smiles-structure": "CSc1nc2ccccc2cc1/C=[N+](\\[O-])c1ccccc1", "discrete-label": "inactive"}
{"smiles-structure": "COc1cc(-c2nc3sccn3c2-c2ccnc(NCCNS(=O)(=O)c3ccccc3)n2)ccc1F", "discrete-label": "inactive"}
{"smiles-structure": "COC(=O)[C@]12CCC(C)(C)C[C@H]1[C@H]1/C(=N/OCCc3nn[nH]n3)C[C@@H]3[C@@]4(C)CC[C@H](OC(C)=O)C(C)(C)[C@@H]4CC[C@@]3(C)[C@]1(C)CC2", "discrete-label": "inactive"}
{"smiles-structure": "N#Cc1nc(-c2ccc(F)cc2)oc1S(=O)(=O)N1CCCCC1", "discrete-label": "inactive"}
{"smiles-structure": "COc1ccc(NC(=O)c2sc3nc(C)c(C(=O)/C=C/c4ccccc4)cc3c2N)cc1", "discrete-label": "inactive"}

Task item: Fill in: this test's call for O=c1c2cnn(-c3ccccc3)c2n2c(CN3CCOCC3)nnc2n1-c1ccccc1 is ___
Reply: inactive

Task item: Please answer likewise for Cc1ccc(/C=C2\COc3ccc(O)cc3C2=O)cc1
Reply: inactive

Task item: Please answer likewise for Oc1c(I)cc(I)cc1CNCc1ccccn1
Reply: inactive

src = PubChem BioAssay (NCI)
